Assay: Levodopa pharmacokinetics in Parkinson's Disease patients after single COMPOUND A 25, 50, 100 mg (Example 3c)
Assay type: in vivo, human (Parkinson's Disease patients)
Details: human, in vivo, oral, Day 3, Group 1, levodopa/AADCi with Placebo
property.label: Tmax
A complete answer gives the number followed by the unit.

Given item N[C@@H](Cc1ccc(O)c(O)c1)C(=O)O [levodopa, reference compound] , the value recorded as its Tmax is 30 min

====

Assay: Levodopa pharmacokinetics in Parkinson's Disease patients after single COMPOUND A 25, 50, 100 mg (Example 3c)
Assay type: in vivo, human (Parkinson's Disease patients)
Conditions: human, in vivo, oral, 100 mg, Day 2, 24 h before administration of Compound A, Group 4 (100 mg group); read-out: levodopa t1/2 (converted)
property.label: half-life (min)
Your answer is read as min, so omit the unit and give the number.

Given item N[C@@H](Cc1ccc(O)c(O)c1)C(=O)O [levodopa, reference compound] , the value recorded as its half-life is 107

====

Assay: Levodopa pharmacokinetics in Parkinson's Disease patients after single COMPOUND A 25, 50, 100 mg (Example 3c)
Type: in vivo, human (Parkinson's Disease patients)
Settings: human, in vivo, oral; Day 2, 24 h before administration of Compound A, Group 3 (50 mg group)
property.label: Tmax

Given item N[C@@H](Cc1ccc(O)c(O)c1)C(=O)O [levodopa, reference compound] , the value recorded as its Tmax is 30 min

====

Experiment: Levodopa pharmacokinetics in Parkinson's Disease patients after single COMPOUND A 25, 50, 100 mg (Example 3c)
Format: in vivo, human (Parkinson's Disease patients)
Conditions: human, in vivo, oral, 25 mg, Day 2, 24 h before administration of Compound A, Group 2 (25 mg group)
Method: This study was a three-center, double-blind, randomised, placebo-controlled, cross-over study to investigate the tolerability and effect a single administration of three dosages of COMPOUND A (25, 50 and 100 mg) on the levodopa pharmacokinetics, motor response, and erythrocyte soluble catechol-O-methyltransferase activity in 10 Parkinson's Disease patients concomitantly treated with levodopa/dopa-decarboxylase inhibitor. […]
property.label: Cmax (ng/mL)
Your answer is read as ng/mL, so omit the unit and give the number.

Given item N[C@@H](Cc1ccc(O)c(O)c1)C(=O)O [levodopa, reference compound] , the value recorded as its Cmax is 2240

====

Test: Levodopa pharmacokinetics in Parkinson's Disease patients after single COMPOUND A 25, 50, 100 mg (Example 3c)
Format: in vivo, human (Parkinson's Disease patients)
Conditions: human, in vivo, oral, 50 mg, Day 2, 24 h before administration of Compound A, Group 3 (50 mg group)
property.label: Cmax
A complete answer gives the number followed by the unit.

Given item N[C@@H](Cc1ccc(O)c(O)c1)C(=O)O [levodopa, reference compound] , the value recorded as its Cmax is 2090 ng/mL

====

Assay: Levodopa pharmacokinetics in Parkinson's Disease patients after single COMPOUND A 25, 50, 100 mg (Example 3c)
Format: in vivo, human (Parkinson's Disease patients)
Conditions: human, in vivo, oral, Day 2, 24 h before administration of Compound A, Group 1 (placebo group); Sinemet 25/100 or Madopar/Restex 125; read-out: levodopa t1/2 (converted)
Procedure: This study was a three-center, double-blind, randomised, placebo-controlled, cross-over study to investigate the tolerability and effect a single administration of three dosages of COMPOUND A (25, 50 and 100 mg) on the levodopa pharmacokinetics, motor response, and erythrocyte soluble catechol-O-methyltransferase activity in 10 Parkinson's Disease patients concomitantly treated with levodopa/dopa-decarboxylase inhibitor. […]
property.label: half-life (h)
Your answer is read as h, so omit the unit and give the number.

Given item N[C@@H](Cc1ccc(O)c(O)c1)C(=O)O [levodopa, reference compound] , the value recorded as its half-life is 1.7
